Tested on: HTT mRNA
TEST_SUMMARY: Splicing RT-qPCR assay, HTT canonical (CJ) and alternative (AJ) junction mRNA
Type: cell-based
COND: Homo sapiens; Table 7; AC50 = 50% response in AJ mRNA increase; RT-qPCR, A673 or K562 cells, 24 hours treatment
pEC50: −log10 of the molar value.
RECORDED_ENDPOINT: pEC50

Record excerpt, results attached:
Bench note: what pEC50 did Cc1cc(-c2nc3cn(C4CCNCC4)nc3s2)cc2cn(C)nc12 show?
6.00 to 7.00

Similarly, Cc1cn2cc(-n3cc4sc(C5CCNCC5)cc4n3)cc(F)c2n1 ?
6.00 to 7.00

Similarly, Cn1cc2cc(-c3cc4cn(C5CCNCC5)nc4s3)ccc2n1 ?
6.00 to 7.00

Turning now to a further record.
Bench note: what pEC50 did COc1c(-c2nc3sc(C4CCNCC4)cc3s2)cc2cn(C)nc2c1F show?
> 7.00
